Test: Tissue distribution: brain, plasma and liver levels after oral dosing
Type: in vivo, C57BL/6J mice
Details: male, C57BL/6J, mouse, in vivo, po, 10 mg/kg
Experimental endpoint: concentration at 1 h (ng/g)
State just the number; it will be interpreted in ng/g.

Ask: Which concentration at 1 h value belongs to Cc1ccc(C)c(OCCCC(C)(C)C(=O)NC2CCCOc3c2nn(-c2ccccc2Cl)c3-c2ccc(Cl)cc2)c1 (stereo not shown) [BNS822] ?
Reply: 1.34

====

System: P-gp (MDR1)
Assay: MDR1-MDCK II cell permeation assay (bi-directional permeability, P-gp efflux)
Format: in vitro ADME
Settings: dog, MDCK-MDR1, pH 7.4; 2 μM, A to B, 2.5 hours
Experimental endpoint: Papp at 2.5 h, 2 μM (×10⁻⁶ cm/s)
Supply the numeric figure in ×10⁻⁶ cm/s, leaving out any unit text.

Ask: I am curious: what Papp at 2.5 h, 2 μM value has been reported for O=S(=O)(NC1CCCOc2c1nn(-c1ccccc1Cl)c2-c1ccc(Cl)cc1)c1ccc(Cl)cc1 (stereo not shown) ?
Reply: 0.26
